Target: Dual specificity tyrosine-phosphorylation-regulated kinase 1A (Homo sapiens)
Assay: Inhibition of recombinant Dyrk1A (unknown origin) using KKISGRLSPIMTEQ-NH2 peptide substrate
pIC50: −log10 of the molar value.
observation type: pIC50

Solved entries (count: 5):
O=C(c1cc2cc(O)ccc2s1)c1cc(O)ccc1F
5.70
O=C(c1cccc(O)c1)c1ccc2cc(O)ccc2c1
5.54
O=C(c1cccc(O)c1)c1cc2cc(O)ccc2o1
5.51
O=C(c1ccc(O)cc1)c1cc2cc(O)ccc2o1
5.01
O=C(c1cccc(O)c1)c1cc2cc(O)ccc2s1
6.40

(I) COc1ccc2sc(C(=O)N(C)OC)cc2c1
(II) N#Cc1cccc(C(=O)c2cc3cc(O)ccc3s2)c1
(III) O=C(c1ccc(O)cc1)c1cc2cc(O)ccc2s1
(IV) O=C(c1cccc(O)c1)c1cc2ccccc2s1
Returns the items ordered by pIC50, from maximum to minimum. Write the labels out in the order the request specifies.
I, III, II, IV

====

Molecular target: Dual specificity tyrosine-phosphorylation-regulated kinase 1A (Homo sapiens)
Experiment: Inhibition of recombinant Dyrk1A (unknown origin) using KKISGRLSPIMTEQ-NH2 peptide substrate
pIC50: −log10 of the molar value.
observation type: pIC50

Solved entries (count: 3):
O=C(c1ccc(F)c(O)c1)c1cc2cc(O)ccc2s1
5.92
O=C(c1ccccc1)c1cc2cc(O)ccc2s1
5.70
Cc1cc(C(=O)c2cc3cc(O)ccc3s2)ccc1O
4.96

(1) Cn1c(C(=O)c2cccc(O)c2)cc2cc(O)ccc21
(2) O=C(c1cccc(O)c1)c1cc2cc(O)ccc2[nH]1
# return whichever of 1 and 2 has the smaller pIC50 Select an item and report its label.
2
(2: 4.82, 1: 5.47)

====

Assay: Modulation of Clk/sty pre-mRNA splicing in human STO cells assessed as concentration required to increase in mature Clk2 mRNA level by RT-PCR analysis
Type: functional, cell-based
Conditions: in the assay text read “Clk1” for “Clk2”
pEC50: −log10 of the molar value.
observation type: pEC50

CC(=O)c1cc2cc(O)ccc2s1
5.05

(A) Cc1ccc(C(=O)c2cc3cc(O)ccc3s2)cc1O
(B) CCN1/C(=C/C(C)=O)Sc2ccc(OC)cc21
# return whichever of A and B has the smaller pEC50 Select an item and report its label.
B

====

Target: Dual specificity tyrosine-phosphorylation-regulated kinase 2 (Homo sapiens) (UniProt Q92630)
Sequence (Q92630 whole entry): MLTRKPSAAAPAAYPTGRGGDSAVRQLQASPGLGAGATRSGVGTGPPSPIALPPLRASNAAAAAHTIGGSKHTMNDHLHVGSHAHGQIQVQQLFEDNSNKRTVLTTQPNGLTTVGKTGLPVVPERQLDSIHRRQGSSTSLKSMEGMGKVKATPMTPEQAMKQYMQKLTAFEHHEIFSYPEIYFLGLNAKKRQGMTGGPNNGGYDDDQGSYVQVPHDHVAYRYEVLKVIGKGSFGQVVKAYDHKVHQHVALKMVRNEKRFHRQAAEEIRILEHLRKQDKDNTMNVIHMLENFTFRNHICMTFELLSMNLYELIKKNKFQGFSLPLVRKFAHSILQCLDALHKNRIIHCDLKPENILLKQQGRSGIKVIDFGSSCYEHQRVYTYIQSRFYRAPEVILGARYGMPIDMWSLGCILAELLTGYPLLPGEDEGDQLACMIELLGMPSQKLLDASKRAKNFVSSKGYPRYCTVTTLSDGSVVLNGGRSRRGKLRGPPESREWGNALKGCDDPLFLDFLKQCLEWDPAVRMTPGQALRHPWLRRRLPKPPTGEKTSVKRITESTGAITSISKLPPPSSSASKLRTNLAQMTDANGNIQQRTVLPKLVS
Assay: Inhibition of recombinant Dyrk2 (unknown origin) using KKISGRLSPIMTEQ-NH2 peptide substrate at 5 uM
observation type: inhibition (%)

Cc1ccc(C(=O)c2cc3cc(O)ccc3s2)cc1O
50
O=C(c1ccc(O)cc1)c1cc2cc(O)ccc2o1
38
O=C(c1cccc(O)c1)c1cc2cc(O)ccc2s1
49
O=C(c1cccc(O)c1)c1cc2cc(O)ccc2o1
34
Cc1cc(C(=O)c2cc3cc(O)ccc3s2)ccc1O
8
Cn1c(C(=O)c2cccc(O)c2)cc2cc(O)ccc21
25

(A) O=C(c1ccc(O)cc1)c1cc2cc(O)ccc2s1
(B) O=C(c1ccccc1)c1cc2cc(O)ccc2s1
(C) N#Cc1cccc(C(=O)c2cc3cc(O)ccc3s2)c1
(D) COc1cccc(C(=O)c2cc3cc(OC)ccc3s2)c1
(E) O=C(c1cccc(O)c1)c1cc2ccccc2s1
# ascending order, key=inhibition Write the labels out in the order the request specifies.
D, C, E, A, B

(P) O=C(c1cccc(O)c1)c1cc2cc(O)ccc2[nH]1
(Q) COc1ccc2sc(C(=O)N(C)OC)cc2c1
# return whichever of P and Q has the smaller inhibition Select an item and report its label.
P

====

Biological target: Dual specificity protein kinase CLK1 (Homo sapiens)
Sequence (P49759 whole entry): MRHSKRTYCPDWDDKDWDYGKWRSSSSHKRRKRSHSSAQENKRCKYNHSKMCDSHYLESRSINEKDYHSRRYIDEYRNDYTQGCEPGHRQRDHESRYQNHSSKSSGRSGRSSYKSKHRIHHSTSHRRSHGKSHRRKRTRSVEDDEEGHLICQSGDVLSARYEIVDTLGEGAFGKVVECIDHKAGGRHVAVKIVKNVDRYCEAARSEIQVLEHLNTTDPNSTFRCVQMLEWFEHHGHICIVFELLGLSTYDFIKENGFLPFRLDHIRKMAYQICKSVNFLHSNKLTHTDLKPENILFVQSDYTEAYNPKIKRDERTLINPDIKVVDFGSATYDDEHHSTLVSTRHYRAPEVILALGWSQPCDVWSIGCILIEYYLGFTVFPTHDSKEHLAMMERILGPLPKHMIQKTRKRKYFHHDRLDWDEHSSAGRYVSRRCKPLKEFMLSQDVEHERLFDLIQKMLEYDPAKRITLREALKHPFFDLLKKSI
Assay: Inhibition of recombinant Clk1 (unknown origin) using GRSRSRSRSR peptide substrate
observation type: IC50 (nM)

(a) O=C(c1ccc(O)cc1)c1cc2cc(O)ccc2o1
(b) O=C(c1ccc(O)cc1)c1cc2cc(O)ccc2s1
# return whichever of a and b has the smaller IC50 Select an item and report its label.
b

(I) Cn1c(C(=O)c2cccc(O)c2)cc2cc(O)ccc21
(II) Cc1ccc(C(=O)c2cc3cc(O)ccc3s2)cc1O
(III) COc1ccc2sc(C(=O)N(C)OC)cc2c1
(IV) O=C(c1ccccc1)c1cc2cc(O)ccc2s1
# ascending order, key=IC50 Write the labels out in the order the request specifies.
II, III, IV, I

(A) O=C(c1cccc(O)c1)c1cc2cc(O)ccc2o1
(B) O=C(c1cccc(O)c1)c1cc2cc(O)ccc2s1
(C) O=C(c1cc2cc(O)ccc2s1)c1cc(O)ccc1F
Returns the items ordered by IC50, from maximum to minimum. Write the labels out in the order the request specifies.
A, B, C

(a) O=C(c1cccc(O)c1)c1ccc2cc(O)ccc2c1
(b) N#Cc1cccc(C(=O)c2cc3cc(O)ccc3s2)c1
Which one would you say has the larger IC50 value: a , or b ? Select an item and report its label.
a

(I) O=C(c1cccc(O)c1)c1cc2cc(O)ccc2[nH]1
(II) O=C(c1ccc(F)c(O)c1)c1cc2cc(O)ccc2s1
Which one would you say has the larger IC50 value: I , or II ? Select an item and report its label.
I
(I: 2000 nM, II: 300 nM)

====

Target: Casein kinase II subunit alpha (Homo sapiens)
Assay: Inhibition of CK2alpha (unknown origin) at 5 uM
observation type: inhibition (%)

(I) Cn1c(C(=O)c2cccc(O)c2)cc2cc(O)ccc21
(II) Cc1ccc(C(=O)c2cc3cc(O)ccc3s2)cc1O
(III) O=C(c1cccc(O)c1)c1cc2cc(O)ccc2o1
Rank the listed compounds by inhibition, largest first. Write the labels out in the order the request specifies.
I, III, II

(A) O=C(c1ccc(O)cc1)c1cc2cc(O)ccc2o1
(B) N#Cc1cccc(C(=O)c2cc3cc(O)ccc3s2)c1
# return whichever of A and B has the smaller inhibition Select an item and report its label.
B

(1) O=C(c1ccc(F)c(O)c1)c1cc2cc(O)ccc2s1
(2) O=C(c1cccc(O)c1)c1cc2ccccc2s1
# return whichever of 1 and 2 has the smaller inhibition Select an item and report its label.
1

(I) O=C(c1ccccc1)c1cc2cc(O)ccc2s1
(II) O=C(c1ccc(O)cc1)c1cc2cc(O)ccc2s1
# return whichever of I and II has the smaller inhibition Select an item and report its label.
I
(I: 13%, II: 33%)

====

Target: Dual specificity tyrosine-phosphorylation-regulated kinase 1B (Homo sapiens, UniProt Q9Y463)
Sequence (Q9Y463 whole entry): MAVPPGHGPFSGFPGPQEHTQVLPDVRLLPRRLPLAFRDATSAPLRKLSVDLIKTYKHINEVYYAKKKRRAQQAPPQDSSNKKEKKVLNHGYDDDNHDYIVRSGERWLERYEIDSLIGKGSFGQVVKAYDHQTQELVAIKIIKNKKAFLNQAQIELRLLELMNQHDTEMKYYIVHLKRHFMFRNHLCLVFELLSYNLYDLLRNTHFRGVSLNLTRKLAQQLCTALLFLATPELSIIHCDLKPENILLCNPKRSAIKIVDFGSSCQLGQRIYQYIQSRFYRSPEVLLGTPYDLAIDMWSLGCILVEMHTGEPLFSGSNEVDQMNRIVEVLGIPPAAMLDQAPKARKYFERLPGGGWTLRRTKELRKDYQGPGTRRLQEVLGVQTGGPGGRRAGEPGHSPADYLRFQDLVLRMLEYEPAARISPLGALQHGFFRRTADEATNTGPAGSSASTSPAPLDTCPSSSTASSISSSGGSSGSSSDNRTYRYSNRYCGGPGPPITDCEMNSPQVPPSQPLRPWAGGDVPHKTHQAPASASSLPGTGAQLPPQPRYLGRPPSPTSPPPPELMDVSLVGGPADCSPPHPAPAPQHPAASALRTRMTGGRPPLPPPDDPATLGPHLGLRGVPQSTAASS
Assay: Inhibition of recombinant Dyrk1B (unknown origin) using KKISGRLSPIMTEQ-NH2 peptide substrate
observation type: IC50 (nM)

O=C(c1ccccc1)c1cc2cc(O)ccc2s1
1000

(1) Cc1ccc(C(=O)c2cc3cc(O)ccc3s2)cc1O
(2) O=C(c1ccc(F)c(O)c1)c1cc2cc(O)ccc2s1
(3) O=C(c1ccc(O)cc1)c1cc2cc(O)ccc2o1
(4) O=C(c1ccc(O)cc1)c1cc2cc(O)ccc2s1
Returns the items ordered by IC50, from maximum to minimum. Write the labels out in the order the request specifies.
3, 4, 2, 1
(3: 1300 nM, 4: 800 nM, 2: 400 nM, 1: 200 nM)

(P) O=C(c1cc2cc(O)ccc2s1)c1cc(O)ccc1F
(Q) Cc1cc(C(=O)c2cc3cc(O)ccc3s2)ccc1O
Which one would you say has the larger IC50 value: P , or Q ? Select an item and report its label.
Q

(1) O=C(c1cccc(O)c1)c1cc2cc(O)ccc2s1
(2) O=C(c1cccc(O)c1)c1cc2cc(O)ccc2o1
Which one would you say has the larger IC50 value: 1 , or 2 ? Select an item and report its label.
2
(2: 6100 nM, 1: 200 nM)

====

Experiment: Modulation of Clk/sty pre-mRNA splicing in human STO cells assessed as concentration required to 5 fold increase in mature Clk1 mRNA level by RT-PCR analysis
observation type: Activity (µM)
Numbers only; they are read as µM.

Solved entries (count: 3):
Cc1ccc(C(=O)c2cc3cc(O)ccc3s2)cc1O
1.9
COc1ccc2sc(C(=O)N(C)OC)cc2c1
2.4
CC(=O)c1cc2cc(O)ccc2s1
1.1

Recorded Activity of CCN1/C(=C/C(C)=O)Sc2ccc(OC)cc21 , please.
3.1

====

Molecular target: Dual specificity tyrosine-phosphorylation-regulated kinase 2 (Homo sapiens) (UniProt Q92630)
Assay: Inhibition of recombinant Dyrk2 (unknown origin) using KKISGRLSPIMTEQ-NH2 peptide substrate at 5 uM
observation type: inhibition (%)

O=C(c1cc2cc(O)ccc2s1)c1cc(O)ccc1F
30
O=C(c1ccc(F)c(O)c1)c1cc2cc(O)ccc2s1
27
CC(=O)c1cc2cc(O)ccc2s1
46

====

Biological target: Casein kinase II subunit alpha (Homo sapiens) (UniProt P68400)
Sequence (P68400 whole entry, looked up): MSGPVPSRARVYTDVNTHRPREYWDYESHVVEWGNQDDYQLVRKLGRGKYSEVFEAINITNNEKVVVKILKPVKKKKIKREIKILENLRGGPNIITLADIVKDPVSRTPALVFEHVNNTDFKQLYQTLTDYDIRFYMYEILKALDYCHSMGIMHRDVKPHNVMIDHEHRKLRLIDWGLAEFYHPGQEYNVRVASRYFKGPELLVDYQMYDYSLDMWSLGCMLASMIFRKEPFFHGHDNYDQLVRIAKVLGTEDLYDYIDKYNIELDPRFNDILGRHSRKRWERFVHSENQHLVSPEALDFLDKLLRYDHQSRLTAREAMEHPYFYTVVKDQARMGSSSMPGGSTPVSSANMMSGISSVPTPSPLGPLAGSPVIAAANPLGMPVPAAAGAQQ
Assay: Inhibition of CK2alpha (unknown origin) at 5 uM
observation type: inhibition (%)

Solved entries (count: 2):
O=C(c1cc2cc(O)ccc2s1)c1cc(O)ccc1F
20
CC(=O)c1cc2cc(O)ccc2s1
9

(1) O=C(c1cccc(O)c1)c1cc2cc(O)ccc2s1
(2) O=C(c1cccc(O)c1)c1cc2cc(O)ccc2[nH]1
Which one would you say has the larger inhibition value: 1 , or 2 ? Select an item and report its label.
2
(2: 22%, 1: 12%)
